Test: self-splicing fitness, log relative to wild type (ln ratio); higher = more splicing; Tetrahymena group I intron in knt gene, E. coli kanamycin selection, DiMSum; sequences stand for … in CUCUCU…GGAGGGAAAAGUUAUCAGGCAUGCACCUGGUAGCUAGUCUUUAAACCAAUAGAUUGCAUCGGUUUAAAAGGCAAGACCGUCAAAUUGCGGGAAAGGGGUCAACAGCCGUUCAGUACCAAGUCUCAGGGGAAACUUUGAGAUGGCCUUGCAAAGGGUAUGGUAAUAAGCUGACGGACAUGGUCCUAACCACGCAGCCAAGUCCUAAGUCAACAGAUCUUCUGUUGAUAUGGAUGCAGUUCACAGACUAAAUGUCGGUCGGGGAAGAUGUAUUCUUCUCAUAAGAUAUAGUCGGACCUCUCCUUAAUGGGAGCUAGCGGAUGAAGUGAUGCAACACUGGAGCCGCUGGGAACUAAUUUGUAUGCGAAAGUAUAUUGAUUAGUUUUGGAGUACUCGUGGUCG;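 further: selection with 25 µg/mL kanamycin versus none on LB agar overnight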
Settings: 37 °C
Catalogue of self-splicing fitness (ln) values
Give a plain numeric answer without units written out.

Report self-splicing fitness (ln) for AAAAAGCAAUAUUACGUGGU please. -2.74

All values here come from the supplement of paper PMC7877785.
